Field: IC50. Provide a value for each of the molecules that follow.
target: Voltage-gated N-type calcium channel alpha-1B subunit/Amyloid beta A4 precursor protein-binding family A member 1 (Homo sapiens, UniProt Q00975+Q02410); assay type: protein assay
Sequence (Q00975 whole entry): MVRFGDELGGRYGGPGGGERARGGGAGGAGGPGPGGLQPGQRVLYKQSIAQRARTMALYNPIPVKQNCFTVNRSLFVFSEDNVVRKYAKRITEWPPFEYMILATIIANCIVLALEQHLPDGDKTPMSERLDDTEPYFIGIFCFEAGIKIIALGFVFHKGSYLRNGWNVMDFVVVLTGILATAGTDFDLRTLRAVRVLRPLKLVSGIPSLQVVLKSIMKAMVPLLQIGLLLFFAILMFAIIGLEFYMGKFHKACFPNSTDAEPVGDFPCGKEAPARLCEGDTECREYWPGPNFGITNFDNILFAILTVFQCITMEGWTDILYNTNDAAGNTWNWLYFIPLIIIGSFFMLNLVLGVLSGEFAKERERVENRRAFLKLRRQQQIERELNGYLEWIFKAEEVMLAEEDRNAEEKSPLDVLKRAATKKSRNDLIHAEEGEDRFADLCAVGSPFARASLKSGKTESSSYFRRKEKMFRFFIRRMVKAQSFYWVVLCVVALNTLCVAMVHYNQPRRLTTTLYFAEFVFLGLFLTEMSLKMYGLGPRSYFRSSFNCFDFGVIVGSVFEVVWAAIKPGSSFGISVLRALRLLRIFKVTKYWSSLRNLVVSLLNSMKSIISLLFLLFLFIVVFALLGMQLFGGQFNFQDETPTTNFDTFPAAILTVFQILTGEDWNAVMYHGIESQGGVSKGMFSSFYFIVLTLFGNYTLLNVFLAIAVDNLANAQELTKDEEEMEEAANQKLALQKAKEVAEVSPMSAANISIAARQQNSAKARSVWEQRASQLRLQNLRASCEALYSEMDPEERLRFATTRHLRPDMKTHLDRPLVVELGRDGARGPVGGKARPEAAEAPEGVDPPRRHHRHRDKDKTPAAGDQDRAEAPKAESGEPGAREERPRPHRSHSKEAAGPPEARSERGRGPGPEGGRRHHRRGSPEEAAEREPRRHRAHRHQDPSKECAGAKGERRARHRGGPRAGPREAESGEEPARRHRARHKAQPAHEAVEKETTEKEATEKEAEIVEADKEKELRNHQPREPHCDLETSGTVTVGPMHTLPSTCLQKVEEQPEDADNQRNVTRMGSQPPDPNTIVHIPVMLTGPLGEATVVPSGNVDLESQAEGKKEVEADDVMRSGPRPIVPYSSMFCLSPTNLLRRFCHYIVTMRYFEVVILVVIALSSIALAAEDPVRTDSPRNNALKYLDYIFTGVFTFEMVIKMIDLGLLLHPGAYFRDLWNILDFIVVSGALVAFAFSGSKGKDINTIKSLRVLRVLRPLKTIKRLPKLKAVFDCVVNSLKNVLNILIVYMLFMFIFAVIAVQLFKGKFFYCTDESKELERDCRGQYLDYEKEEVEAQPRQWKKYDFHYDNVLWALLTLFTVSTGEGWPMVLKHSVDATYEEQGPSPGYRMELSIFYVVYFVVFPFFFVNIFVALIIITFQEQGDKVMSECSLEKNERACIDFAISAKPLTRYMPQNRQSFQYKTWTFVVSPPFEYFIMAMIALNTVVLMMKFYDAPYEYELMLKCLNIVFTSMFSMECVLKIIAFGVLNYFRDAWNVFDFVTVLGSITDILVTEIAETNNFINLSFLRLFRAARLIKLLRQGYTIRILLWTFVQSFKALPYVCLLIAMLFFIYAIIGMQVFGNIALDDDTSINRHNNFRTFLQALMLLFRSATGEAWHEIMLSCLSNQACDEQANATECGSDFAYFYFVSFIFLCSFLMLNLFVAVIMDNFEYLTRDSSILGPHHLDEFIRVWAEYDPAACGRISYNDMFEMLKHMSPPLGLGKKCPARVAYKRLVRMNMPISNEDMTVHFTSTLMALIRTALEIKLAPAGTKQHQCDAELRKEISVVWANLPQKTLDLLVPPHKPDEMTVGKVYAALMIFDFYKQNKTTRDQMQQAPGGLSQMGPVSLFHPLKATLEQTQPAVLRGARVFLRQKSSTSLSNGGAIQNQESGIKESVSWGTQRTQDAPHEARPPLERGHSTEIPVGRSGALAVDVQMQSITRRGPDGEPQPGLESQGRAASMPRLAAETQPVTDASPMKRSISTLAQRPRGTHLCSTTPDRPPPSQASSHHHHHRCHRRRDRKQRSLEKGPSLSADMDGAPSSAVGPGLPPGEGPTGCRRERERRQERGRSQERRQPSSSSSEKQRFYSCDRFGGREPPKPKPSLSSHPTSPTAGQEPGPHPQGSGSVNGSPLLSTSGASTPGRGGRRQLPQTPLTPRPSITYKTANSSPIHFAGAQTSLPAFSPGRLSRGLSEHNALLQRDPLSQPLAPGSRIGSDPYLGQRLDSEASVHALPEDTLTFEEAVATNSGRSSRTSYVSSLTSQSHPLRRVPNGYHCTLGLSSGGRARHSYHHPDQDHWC
Sequence (Q02410 whole entry): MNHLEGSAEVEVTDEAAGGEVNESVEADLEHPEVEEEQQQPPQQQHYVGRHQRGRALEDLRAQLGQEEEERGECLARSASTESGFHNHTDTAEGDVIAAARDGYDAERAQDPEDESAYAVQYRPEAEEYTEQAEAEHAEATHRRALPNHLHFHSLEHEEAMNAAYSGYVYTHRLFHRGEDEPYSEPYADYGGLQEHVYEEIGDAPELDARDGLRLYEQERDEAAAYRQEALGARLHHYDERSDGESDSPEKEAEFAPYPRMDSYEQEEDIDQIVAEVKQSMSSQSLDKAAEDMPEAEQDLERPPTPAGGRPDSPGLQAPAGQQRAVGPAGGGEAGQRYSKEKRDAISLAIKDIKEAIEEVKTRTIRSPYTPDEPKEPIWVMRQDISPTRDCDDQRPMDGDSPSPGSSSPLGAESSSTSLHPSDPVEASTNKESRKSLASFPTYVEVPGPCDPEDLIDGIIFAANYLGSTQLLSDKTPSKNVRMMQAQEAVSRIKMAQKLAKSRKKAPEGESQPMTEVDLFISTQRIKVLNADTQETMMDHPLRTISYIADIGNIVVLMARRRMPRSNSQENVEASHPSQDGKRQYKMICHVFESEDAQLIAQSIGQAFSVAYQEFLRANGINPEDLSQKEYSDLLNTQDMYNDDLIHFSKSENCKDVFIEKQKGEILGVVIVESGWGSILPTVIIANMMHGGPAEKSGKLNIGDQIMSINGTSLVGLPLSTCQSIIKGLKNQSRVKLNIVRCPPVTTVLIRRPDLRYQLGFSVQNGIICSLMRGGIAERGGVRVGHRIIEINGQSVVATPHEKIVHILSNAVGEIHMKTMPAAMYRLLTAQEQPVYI
Active and inactive are the calls of the source.

MOLECULE	METRIC	RESULT
CCOC(=O)N1CCN(C(=O)CCN2C(=O)/C(=C\c3cccc(OC)c3)SC2=S)CC1	IC50	28.4 µM (active)
COc1cc2cc3c(N)c(C(=O)Nc4sc(C)c(C)c4C#N)sc3nc2cc1OC	IC50	11.8 µM (active)
O=C(O)COc1ccc(/C=N/NC(=O)c2ccc(-c3csc(Nc4ccc(Cl)cc4)n3)cc2)cc1	IC50	10.1 µM (active)
N#C/C(=C\c1ccc(OCCN2CCOCC2)cc1)C(=O)Nc1ccc(S(N)(=O)=O)cc1	IC50	7.74 µM (active)
Nc1c(C(=O)NC2CC2)sc2nc3c(c(-c4ccco4)c12)CC/C3=C/c1ccco1	IC50	13.1 µM (active)

Enquiry: Dear colleague, please send me the reported IC50 for CCOC(=O)C1CCCN(C(=O)Cn2sc3nc(C)cc(C)c3c2=O)C1 (stereo unspecified) when you can.
Return: 12.6 µM (active)
